The measurements presented in this section are drawn from BigSolDB 2.1.

- test context: in isopropanol, 277.98 K
endpoint name: solubility (mole fraction)
Respond numerically, and do not add a unit to the figure.

Exam item: Report solubility (mole fraction), nothing else, for this compound: CCCCCOC(=O)Nc1nc(=O)n([C@@H]2O[C@H](C)[C@@H](O)[C@H]2O)cc1F
Marked response: 0.0011

====

- test context: in n-propanol, 283.06 K
endpoint name: solubility (mole fraction)
Respond numerically, and do not add a unit to the figure.

Exam item: Report solubility (mole fraction), nothing else, for this compound: CCCCCOC(=O)Nc1nc(=O)n([C@@H]2O[C@H](C)[C@@H](O)[C@H]2O)cc1F
Marked response: 0.0037

====

- test context: in n-heptanol, 303.3 K
endpoint name: solubility (mole fraction)

Exam item: Report solubility (mole fraction), nothing else, for this compound: CCCCCOC(=O)Nc1nc(=O)n([C@@H]2O[C@H](C)[C@@H](O)[C@H]2O)cc1F
Marked response: 0.0092

====

- test context: in isopentanol, 297.33 K
endpoint name: solubility (mole fraction)
Respond numerically, and do not add a unit to the figure.

Exam item: Report solubility (mole fraction), nothing else, for this molecule: CCCCCOC(=O)Nc1nc(=O)n([C@@H]2O[C@H](C)[C@@H](O)[C@H]2O)cc1F
Marked response: 0.0102

====

- test context: in isobutanol, 316.95 K
endpoint name: solubility (mole fraction)

Exam item: Report solubility (mole fraction), nothing else, for this compound: CCCCCOC(=O)Nc1nc(=O)n([C@@H]2O[C@H](C)[C@@H](O)[C@H]2O)cc1F
Marked response: 0.0336

====

- test context: in water, 317.65 K
endpoint name: solubility (mole fraction)
Respond numerically, and do not add a unit to the figure.

Exam item: Report solubility (mole fraction), nothing else, for this compound: CCCCCOC(=O)Nc1nc(=O)n([C@@H]2O[C@H](C)[C@@H](O)[C@H]2O)cc1F
Marked response: 0.0016

====

- test context: in sec-butanol, 288.13 K
endpoint name: solubility (mole fraction)
Respond numerically, and do not add a unit to the figure.

Exam item: Report solubility (mole fraction), nothing else, for this compound: CCCCCOC(=O)Nc1nc(=O)n([C@@H]2O[C@H](C)[C@@H](O)[C@H]2O)cc1F
Marked response: 0.0026

====

- test context: in n-octanol, 287.98 K
endpoint name: solubility (mole fraction)

Exam item: Report solubility (mole fraction), nothing else, for this molecule: CCCCCOC(=O)Nc1nc(=O)n([C@@H]2O[C@H](C)[C@@H](O)[C@H]2O)cc1F
Marked response: 0.004

====

- test context: in isopentanol, 292.64 K
endpoint name: solubility (mole fraction)

Exam item: Report solubility (mole fraction), nothing else, for this compound: CCCCCOC(=O)Nc1nc(=O)n([C@@H]2O[C@H](C)[C@@H](O)[C@H]2O)cc1F
Marked response: 0.0074

====

- test context: in n-hexanol, 297.6 K
endpoint name: solubility (mole fraction)
Respond numerically, and do not add a unit to the figure.

Exam item: Report solubility (mole fraction), nothing else, for this molecule: CCCCCOC(=O)Nc1nc(=O)n([C@@H]2O[C@H](C)[C@@H](O)[C@H]2O)cc1F
Marked response: 0.008

====

- test context: in n-pentanol, 312.04 K
endpoint name: solubility (mole fraction)

Exam item: Report solubility (mole fraction), nothing else, for this compound: CCCCCOC(=O)Nc1nc(=O)n([C@@H]2O[C@H](C)[C@@H](O)[C@H]2O)cc1F
Marked response: 0.0292

====

- test context: in isobutanol, 312.25 K
endpoint name: solubility (mole fraction)
Respond numerically, and do not add a unit to the figure.

Exam item: Report solubility (mole fraction), nothing else, for this molecule: CCCCCOC(=O)Nc1nc(=O)n([C@@H]2O[C@H](C)[C@@H](O)[C@H]2O)cc1F
Marked response: 0.0232

====

- test context: in ethanol, 312.14 K
endpoint name: solubility (mole fraction)
Respond numerically, and do not add a unit to the figure.

Exam item: Report solubility (mole fraction), nothing else, for this compound: CCCCCOC(=O)Nc1nc(=O)n([C@@H]2O[C@H](C)[C@@H](O)[C@H]2O)cc1F
Marked response: 0.0933

====

- test context: in n-pentanol, 278.2 K
endpoint name: solubility (mole fraction)
Respond numerically, and do not add a unit to the figure.

Exam item: Report solubility (mole fraction), nothing else, for this molecule: CCCCCOC(=O)Nc1nc(=O)n([C@@H]2O[C@H](C)[C@@H](O)[C@H]2O)cc1F
Marked response: 0.002

====

- test context: in n-hexanol, 293.85 K
endpoint name: solubility (mole fraction)
Respond numerically, and do not add a unit to the figure.

Exam item: Report solubility (mole fraction), nothing else, for this molecule: CCCCCOC(=O)Nc1nc(=O)n([C@@H]2O[C@H](C)[C@@H](O)[C@H]2O)cc1F
Marked response: 0.006

====

- test context: in n-butanol, 293.53 K
endpoint name: solubility (mole fraction)

Exam item: Report solubility (mole fraction), nothing else, for this compound: CCCCCOC(=O)Nc1nc(=O)n([C@@H]2O[C@H](C)[C@@H](O)[C@H]2O)cc1F
Marked response: 0.007

====

- test context: in ethylene glycol, 278.65 K
endpoint name: solubility (mole fraction)
Respond numerically, and do not add a unit to the figure.

Exam item: Report solubility (mole fraction), nothing else, for this compound: CCCCCOC(=O)Nc1nc(=O)n([C@@H]2O[C@H](C)[C@@H](O)[C@H]2O)cc1F
Marked response: 0.01

====

- test context: in 2-ethylhexanol, 297.38 K
endpoint name: solubility (mole fraction)
Respond numerically, and do not add a unit to the figure.

Exam item: Report solubility (mole fraction), nothing else, for this compound: CCCCCOC(=O)Nc1nc(=O)n([C@@H]2O[C@H](C)[C@@H](O)[C@H]2O)cc1F
Marked response: 0.0036

====

- test context: in isobutanol, 307.4 K
endpoint name: solubility (mole fraction)
Respond numerically, and do not add a unit to the figure.

Exam item: Report solubility (mole fraction), nothing else, for this compound: CCCCCOC(=O)Nc1nc(=O)n([C@@H]2O[C@H](C)[C@@H](O)[C@H]2O)cc1F
Marked response: 0.0156

====

- test context: in water, 308 K
endpoint name: solubility (mole fraction)
Respond numerically, and do not add a unit to the figure.

Exam item: Report solubility (mole fraction), nothing else, for this compound: CCCCCOC(=O)Nc1nc(=O)n([C@@H]2O[C@H](C)[C@@H](O)[C@H]2O)cc1F
Marked response: 0.0014

====

- test context: in n-hexanol, 303.55 K
endpoint name: solubility (mole fraction)
Respond numerically, and do not add a unit to the figure.

Exam item: Report solubility (mole fraction), nothing else, for this compound: CCCCCOC(=O)Nc1nc(=O)n([C@@H]2O[C@H](C)[C@@H](O)[C@H]2O)cc1F
Marked response: 0.0125

====

- test context: in n-octanol, 302.94 K
endpoint name: solubility (mole fraction)
Respond numerically, and do not add a unit to the figure.

Exam item: Report solubility (mole fraction), nothing else, for this molecule: CCCCCOC(=O)Nc1nc(=O)n([C@@H]2O[C@H](C)[C@@H](O)[C@H]2O)cc1F
Marked response: 0.01

====

- test context: in water, 302.8 K
endpoint name: solubility (mole fraction)
Respond numerically, and do not add a unit to the figure.

Exam item: Report solubility (mole fraction), nothing else, for this compound: CCCCCOC(=O)Nc1nc(=O)n([C@@H]2O[C@H](C)[C@@H](O)[C@H]2O)cc1F
Marked response: 0.0013

====

- test context: in n-heptanol, 278 K
endpoint name: solubility (mole fraction)
Respond numerically, and do not add a unit to the figure.

Exam item: Report solubility (mole fraction), nothing else, for this compound: CCCCCOC(=O)Nc1nc(=O)n([C@@H]2O[C@H](C)[C@@H](O)[C@H]2O)cc1F
Marked response: 0.0018

====

- test context: in isopentanol, 278.25 K
endpoint name: solubility (mole fraction)
Respond numerically, and do not add a unit to the figure.

Exam item: Report solubility (mole fraction), nothing else, for this compound: CCCCCOC(=O)Nc1nc(=O)n([C@@H]2O[C@H](C)[C@@H](O)[C@H]2O)cc1F
Marked response: 0.0027

====

- test context: in tert-butanol, 321.65 K
endpoint name: solubility (mole fraction)
Respond numerically, and do not add a unit to the figure.

Exam item: Report solubility (mole fraction), nothing else, for this compound: CCCCCOC(=O)Nc1nc(=O)n([C@@H]2O[C@H](C)[C@@H](O)[C@H]2O)cc1F
Marked response: 0.0423

====

- test context: in 2-ethylhexanol, 292.57 K
endpoint name: solubility (mole fraction)
Respond numerically, and do not add a unit to the figure.

Exam item: Report solubility (mole fraction), nothing else, for this compound: CCCCCOC(=O)Nc1nc(=O)n([C@@H]2O[C@H](C)[C@@H](O)[C@H]2O)cc1F
Marked response: 0.0027

====

- test context: in tert-butanol, 302.75 K
endpoint name: solubility (mole fraction)
Respond numerically, and do not add a unit to the figure.

Exam item: Report solubility (mole fraction), nothing else, for this compound: CCCCCOC(=O)Nc1nc(=O)n([C@@H]2O[C@H](C)[C@@H](O)[C@H]2O)cc1F
Marked response: 0.0096
